Assay: solvent given as SMILES
Conditions: in CN(C)C=O
Response key: Y means absorption maximum >= 400 nm; N means absorption maximum < 400 nm.

These solved cases illustrate the format of a correct answer.
N#Cc1nnn(-c2ccnc3cc(Cl)ccc23)c1N | N
O=C1Nc2ccccc2/C1=C/C(=O)c1ccc([N+](=O)[O-])cc1 | N
N#CC(C#N)=Cc1cn(-c2ccccc2)nc1-c1ccccc1 | N
CC(C)(C)c1ccc(-c2nc3c4ccc(-c5ccccc5)cc4c4cc(-c5ccccc5)ccc4c3n2-c2ccc(C(C)(C)C)cc2)cc1 | N
CC1(C)CCc2c(c3ccccc3c3nc4c5c(c6ccccc6c4nc23)OC(C)(C)CC5)O1 | Y

Problem: Answer whether absorption maximum of `COc1ccc(-c2csc(/C(C#N)=C\Nc3ccc(C#N)cc3)n2)cc1` is greater than or equal to 400 nm.
Result: N

Problem: Decide: is the reported value of absorption maximum for `CCCCOc1ccc(-c2oc3cc4n(c3c2-c2ccc(OCCCC)cc2)[B-](F)(F)[N+]2=Cc3cc5oc(-c6ccc(OCCCC)cc6)c(-c6ccc(OCCCC)cc6)c5n3[B-](F)(F)[N+]2=C4)cc1` equal to or greater than 400 nm?
Result: Y

Problem: Hi, just wondering whether `C(=C\c1ccnc2ccccc12)/c1ccc(/C=C/c2ccnc3ccccc23)cc1` shows absorption maximum of 400 nm or higher.
Result: N

###

Experiment: solvent given as SMILES
Settings: in CCOC(C)=O
recorded.endpoint: absorption maximum (nm)
Enter your answer as a number in nm; do not include the unit.

Consider the reported absorption maximum for these compounds:
Cc1cc(C(F)(F)F)nc2c1ccc1nc(-c3ccc(Cl)cc3)cn12 | 368.2
O=S(=O)([O-])c1ccc(O)c2ccccc12 | 322
CC1=[N+]2C(=C(c3ccc(N4CCOCC4)cc3)c3ccc(C)n3[B-]2(F)F)C=C1 | 506
CCN(CC)c1cccc(C=O)c1 | 376
Cc1ccc(C2=C3C=CC(C#Cc4ccccc4)=[N+]3[B-](F)(F)n3c(Cl)ccc32)cc1 | 558
N#CC(C#N)=C(/C=C/c1ccc(N(c2ccccc2)c2ccccc2)cc1)c1ccc2c3c(cccc13)CC2 | 482

CN(CC(O)c1cccc(O)c1)c1ccc([N+](=O)[O-])c(C2CC(c3cccc4ccccc34)=NN2c2ccccc2)c1 (centres undefined) yielded absorption maximum of 418

# absorption maximum (compound: `COc1ccc2cc3c(C)cc(=O)oc3cc2c1` ) is 340

###

Test: solvent given as SMILES
Conditions: in C1CCOC1
Below: a set of entries, each annotated with reported absorption maximum.

CCCCCCc1ccsc1-c1ccc2c(c1)C1=[N+]3C2=Cc2c4ccc(-c5sccc5CCCCCC)cc4c4n2[B-]3(Oc2ccccc21)Oc1ccccc1-4 (stereo not given) | 733 nm
CN(C)c1ccc(C2=Nc3sc4cc(C(F)(F)F)ccc4[n+]3[B-](F)(F)O2)cc1 | 430 nm
CCCCCCC1(CCCCCC)c2cc(-c3nc(-c4ccc5c(c4)C(CCCCCC)(CCCCCC)c4cc(-n6c7ccc(C(C)(C)C)cc7c7cc(C(C)(C)C)ccc76)ccc4-5)nc(-c4ccc5c(c4)C(CCCCCC)(CCCCCC)c4cc(-n6c7ccc(C(C)(C)C)cc7c7cc(C(C)(C)C)ccc76)ccc4-5)n3)ccc2-c2ccc(-n3c4ccc(C(C)(C)C)cc4c4cc(C(C)(C)C)ccc43)cc21 | 382 nm
C(=C\c1cnccn1)/c1ccc(N(c2ccccc2)c2ccccc2)cc1 | 393 nm

The compound `c1ccc2nc3cccc(-c4ccc(-n5c6ccccc6c6ccccc65)cc4)c3cc2c1` showed absorption maximum equal to 359 nm

Noted for `Cc1cscc1-c1cc2c3cc(-c4cscc4C)c4nc(C(F)(F)C(F)(F)C(F)(F)F)nc5c(-c6cscc6C)cc(c6cc(-c7cscc7C)c7nc(C(F)(F)C(F)(F)C(F)(F)F)nc1c7c26)c3c45` : its absorption maximum reads 493 nm

Form: compound = `CN(C)c1ccc(C2=C(c3ccccc3)c3sc4ccccc4[n+]3[B-](F)(F)O2)cc1` ; absorption maximum = 446 nm

The compound listed as `CCc1c(C)c2n(c1C)[B-](F)(F)[N+]1=C(c3ccc[nH]3)c3ccccc3C1=C2C` shows absorption maximum equal to 604 nm

The compound `O=C(O)c1ccc2cc3cc(C(=O)O)ccc3cc2c1` showed absorption maximum equal to 409 nm

Quick note, absorption maximum for `CCCCCCOc1ccc(/C=C/c2ccc(N(c3ccc(/C=C/c4ccc(OCCCCCC)cc4)cc3)c3ccc(-c4nc5ccccc5nc4-c4ccc(N(c5ccc(/C=C/c6ccc(OCCCCCC)cc6)cc5)c5ccc(/C=C/c6ccc(OCCCCCC)cc6)cc5)cc4)cc3)cc2)cc1` landed at 378 nm

Value of absorption maximum reported for the compound `CCOC(=O)C1=CN(c2ccccc2)C=C(C(=O)OCC)C1` is 376 nm

Query `CN(C)c1ccc(/C=C/C(=C(C#N)C#N)c2ccc3c4c(cccc24)CC3)cc1` yields absorption maximum of 488 nm

Looking up `Cc1cc(O)c(C(C)C)cc1/N=C/c1ccc(O)cc1` , I found its absorption maximum recorded as 342 nm

The reported absorption maximum of the compound `COc1cc(OC)cc(C2=C3C(C)=C(I)C(/C=C/c4c[nH]c5ccc([N+](=O)[O-])cc45)=[N+]3[B-](F)(F)n3c(/C=C/c4c[nH]c5ccc([N+](=O)[O-])cc45)c(I)c(C)c32)c1` was 695 nm

The recorded absorption maximum for `COc1ccc2c(c1)c1ccc3cccc4c5cccc6oc(=O)c2c(c65)c1c34` is 425 nm

###

Test: solvent given as SMILES
Conditions: in CC#N
absorption maximum values, listed per item
Report the figure along with its unit, number first.

For `CC1=N/C(=C\c2ccc(C#N)c(N(C)C)c2)C(=O)N1C` the compound record lists absorption maximum as 369 nm

// `Cc1ccc2nc3[nH]c(=O)[nH]c(=O)c3nc2c1C` : absorption maximum value = 388 nm

absorption maximum measured on `COc1c2ccccc2c(OC)c2c1c1ccc(F)cc1n2C` = 398 nm

Lab book: absorption maximum of `CN(C)c1ccc(/C=C2\CC/C(=C\c3ccc(C#N)cc3)C2=O)cc1` noted as 456 nm

###

Assay: solvent given as SMILES
Settings: in CO
recorded.endpoint: absorption maximum (nm)
Give just the numeric value; nm need not be written.

Reported absorption maximum for `CC(=O)c1ccc2ccc3cccc4ccc1c2c34` was 385

Value of measured absorption maximum for the entry `CC(C)(C)c1ccc(C(C)(C)C)c(N2C(=O)c3cccc4c(-c5ccc(-c6ccc([N+](=O)[O-])cc6)s5)ccc(c34)C2=O)c1` : 393

What the record says about COC(=O)C(Cc1ccc2oc(-c3ccncc3)nc2c1)NC(=O)OC(C)(C)C (stereo not given) : absorption maximum is 306.08

According to the records, this compound COc1ccc(C2CC(c3ccc(O)cc3)=NN2c2ccc(S(N)(=O)=O)cc2)cc1 (stereo not given) displays absorption maximum of 357

Item: `CCCCCCCCN1c2ccc(C#Cc3ccc(C(F)(F)F)cc3)cc2Sc2cc(C=O)ccc21` | absorption maximum: 362

###

Listed compounds paired with reported absorption maximum
Assay: solvent given as SMILES
Conditions: in C1CCOC1
Answers without a unit are incomplete; give the number and then its unit.

Value of absorption maximum reported for the compound `c1ccc(N2c3ccc4ccccc4c3-c3c4ccccc4nc[n+]3[B-]2(c2ccccc2)c2ccccc2)cc1` is 535 nm

Documented absorption maximum of `CN(C)c1ccc(C(=Cc2ccc(C=O)cc2)c2ccc(N(C)C)cc2)cc1` : 407 nm

Lab book: absorption maximum of `O=C1c2ccc3c4ccc5c6c(ccc(c7ccc(c2c37)C(=O)N1c1ccncc1)c64)C(=O)N(c1ccncc1)C5=O` noted as 522 nm

response.value for `c1ccc(-c2ccc(-c3ccc(N(c4ccccc4)c4ccccc4)cc3)c3nsnc23)cc1` (field: absorption maximum) = 437 nm

Notebook: COc1ccc(C2=Cc3ccccc3P2(=O)c2ccccc2)cc1 (stereo not drawn) , absorption maximum read as 362 nm

Looking up `COc1ccc2c(=O)c3c([nH]c2c1)-c1ccccc1NC3(C)C` , I found its absorption maximum recorded as 404 nm

absorption maximum in this record for `Cc1cc(O)c(C(C)C)cc1/N=C/c1ccc(C(F)(F)F)cc1` : 363 nm

get_value(item= `Cc1ccc(C(=O)NN2C3=C(CC4=C2CCCC4=O)C(=O)CCC3)cc1` , readout=absorption maximum) returns 366 nm

###

Assay: solvent given as SMILES
Details: in Cc1ccccc1
Label key: true means absorption maximum under 400 nm; false means absorption maximum of 400 nm or more.

// below: answered compounds
Cc1cc(C)c(C2=C3C=C(c4ccc(C(C)(C)C)cc4)C(c4ccc(C(C)(C)C)cc4)=[N+]3[B-](F)(F)n3c2cc(-c2ccc(C(C)(C)C)cc2)c3-c2ccc(C(C)(C)C)cc2)c(C)c1 | false
COc1ccc(-c2nc3c(c4c2-c2ccccc2CC4)-c2ccccc2CC3)cc1 | true

Problem: Is absorption maximum of `CC(C)(C)c1ccc2oc(-c3ccc(-c4nc5cc(C(C)(C)C)ccc5o4)s3)nc2c1` strictly below 400 nm?
Result: true

Problem: Does the reported absorption maximum of the following compound sit strictly below 400 nm? `CC(C)(C)c1ccc2c(c1)c1cc(C(C)(C)C)ccc1n2-c1ccc(C(=O)c2ccncc2)cc1`
Result: true
